readout.kind: melting point

Look over these answered cases.
C[C@H](NC(=O)Oc1cccc(C2(C)C(=O)Nc3cc(Cl)cc(Cl)c3C2=O)c1)c1ccccc1 (some centres unmarked): 91 to 94 °C
C[C@H](NC(=O)Oc1ccc(C2(C)C(=O)Nc3cc(Cl)cc(Cl)c3C2=O)cc1)c1ccccc1 (some centres unmarked): 110 to 115 °C
COc1ccc(C2(C)C(=O)Nc3cc(Cl)cc(Cl)c3C2=O)cc1[N+](=O)[O-] (centres unmarked): 255 to 256 °C
CC1(c2cccc(OCc3ccccc3)c2)C(=O)Nc2cc(Cl)cc(Cl)c2C1=O (centres unmarked): 201 to 203 °C
CN1CCN(c2ccc3c(c2)NC(=O)C(C)(c2ccc(N)cc2)C3=O)CC1 (centres unmarked): 265 to 267 °C
COc1cc(Cl)c2c(c1)NC(=O)C(C)(c1ccc(Br)cc1)C2=O (centres unmarked): 239 to 240 °C
CN(C)c1ccc(C2(C)C(=O)Nc3cc(Cl)cc(Cl)c3C2=O)cc1 (centres unmarked): 268 to 269 °C

Ask: Any idea what melting point was measured for COc1ccc(C2(C)C(=O)Nc3cc(N4CCN(C)CC4)cc(Cl)c3C2=O)cc1 (centres unmarked) ?
Reply: 201 to 202 °C

---

system.tested: hD3 receptor (Homo sapiens)
Construct: purchased BioSignal Packard Inc., Montreal, Canada
Sequence (P35462 whole entry): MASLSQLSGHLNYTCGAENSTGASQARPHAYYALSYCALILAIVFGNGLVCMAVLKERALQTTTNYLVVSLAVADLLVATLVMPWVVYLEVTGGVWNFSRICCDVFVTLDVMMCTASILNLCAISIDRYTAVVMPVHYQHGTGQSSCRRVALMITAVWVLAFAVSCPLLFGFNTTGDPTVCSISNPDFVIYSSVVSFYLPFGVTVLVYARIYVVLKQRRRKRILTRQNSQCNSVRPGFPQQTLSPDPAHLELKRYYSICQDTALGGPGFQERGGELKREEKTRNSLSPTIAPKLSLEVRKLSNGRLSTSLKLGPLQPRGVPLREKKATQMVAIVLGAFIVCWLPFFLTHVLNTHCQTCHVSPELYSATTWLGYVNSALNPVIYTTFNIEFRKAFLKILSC
run.description: Radioligand binding, dopamine D3 ([3H]spiperone)
condition.label: read-out: Binding affinity (Inhibition rate % at 10 μM) D3
Decide by inhibition at 10 µM: equal to or exceeding 20% means t, less means f.

Below are worked cases with known answers.
CC1(c2ccc(O)cc2)C(=O)Nc2ccccc2C1=O (stereo not drawn): t
CC1(c2ccc(O)c(N)c2)C(=O)Nc2c(Br)cc(Br)cc2C1=O (stereo not drawn): t
CC1(c2ccc(O)c(Br)c2)C(=O)Nc2cc(Cl)cc(Cl)c2C1=O (stereo not drawn): f
COc1cc(Br)c2c(c1)NC(=O)C(C)(c1ccccc1)C2=O (stereo not drawn): f
CC1(c2ccccc2)C(=O)Nc2cc(Cl)cc(Cl)c2C1=O (stereo not drawn): f

Ask: Assess whether reported inhibition at 10 µM for `C[C@H](NC(=O)Nc1cccc([C@]2(C)C(=O)Nc3cc(Cl)cc(Cl)c3C2=O)c1)c1ccccc1` sits at 20% or higher.
Reply: f

Ask: In plain terms: is recorded inhibition at 10 µM at least 20% for CC1(c2ccccc2)C(=O)Nc2ccccc2C1=O (stereo not drawn) ?
Reply: f

Ask: Could you verify whether the entry CC1(c2cccc(OCc3ccccc3)c2)C(=O)Nc2cc(Cl)cc(Cl)c2C1=O (stereo not drawn) shows inhibition at 10 µM of no less than 20%?
Reply: t

Ask: Say whether CC1(c2ccc(N)cc2)C(=O)Nc2cc(Cl)ccc2C1=O (stereo not drawn) shows inhibition at 10 µM of 20% or more.
Reply: f

Ask: Is inhibition at 10 µM at least 20%? Consider C[C@H](NC(=O)Oc1cccc(C2(C)C(=O)Nc3cc(Cl)cc(Cl)c3C2=O)c1)c1ccccc1 (stereo partly drawn)
Reply: f

Ask: API: above_or_equal(metric=inhibition at 10 µM, cutoff=20%) for item COc1cc(Cl)c2c(c1)NC(=O)C(C)(c1ccc(Br)cc1)C2=O (stereo not drawn)
Reply: f

Ask: Check this compound for inhibition at 10 µM at or above 20%: CC1(c2ccc(I)cc2)C(=O)Nc2cc(Cl)cc(Cl)c2C1=O (stereo not drawn)
Reply: f

Ask: Could you tell me if the measured inhibition at 10 µM of COc1cc(C2(C)C(=O)Nc3ccccc3C2=O)ccc1O (stereo not drawn) reaches 20% or more?
Reply: f

Ask: Form field: inhibition at 10 µM at least 20%? Entry: CC1(c2ccccc2)C(=O)Nc2cc(Br)cc(Br)c2C1=O (stereo not drawn)
Reply: f

Ask: State whether the measured inhibition at 10 µM reaches 20%, counting equality as reaching it, for COc1ccc(C2(C)C(=O)Nc3c(Br)cc(Br)cc3C2=O)cc1N (stereo not drawn)
Reply: t

Ask: Form field: inhibition at 10 µM at least 20%? Entry: CC1(c2ccc([N+](=O)[O-])cc2)C(=O)Nc2cc(Cl)ccc2C1=O (stereo not drawn)
Reply: f

Ask: Does inhibition at 10 µM meet or surpass 20% for COc1ccc(NS(=O)(=O)c2sc3ccc(Cl)cc3c2C)cc1N1CCNCC1 [SB-271046, reference compound] ?
Reply: t
